assay: Toxicity liver stage against HepG2, at 10uM; type: cell-based; design: test concentration 10 uM, cell line HepG2-A16-CD81EGFP; conditions: human, HepG2-A16-CD81EGFP cells; read-out: INHIBITION

{"compound": "COCC1CN(Cc2ccc(C)o2)Cc2ncn(CC3CC3)c21 (centres undefined)", "cytotoxicity at 10 µM / %": -11}
{"compound": "Cc1cc(C(=O)NCc2ccnc(N3CCN(C)CC3)c2)no1", "cytotoxicity at 10 µM / %": -6.63}
{"compound": "Cc1cc(NCCS(C)(=O)=O)n2nc(C)cc2n1", "cytotoxicity at 10 µM / %": -14}
{"compound": "O=C(NC1CC1)[C@H]1C[C@H]2OCC[C@H]2N(CC2CC2)C1", "cytotoxicity at 10 µM / %": 2.76}
{"compound": "Cc1cc(NCc2ccccc2)nc2[nH]nc(N)c12", "cytotoxicity at 10 µM / %": -44}
{"compound": "COc1cc(-c2noc(C(CC(C)C)N3CCCCC3=O)n2)ccn1 (centres undefined)", "cytotoxicity at 10 µM / %": -60.8}
{"compound": "CSCCC(C)(O)CNC(=O)c1ccsc1 (centres undefined)", "cytotoxicity at 10 µM / %": -4.57}
{"compound": "Cc1cc(C)n(CCC(=O)N2CCC(c3nc(C)no3)CC2)n1", "cytotoxicity at 10 µM / %": 23.3}
{"compound": "CN(C)[C@@H]1CO[C@H](CNC(=O)Nc2ccccc2)[C@H]1O", "cytotoxicity at 10 µM / %": -0.713}
{"compound": "CN(C)CCO[C@H]1CN(Cc2ccco2)[C@@H]2COC[C@H]12", "cytotoxicity at 10 µM / %": -98.2}
{"compound": "O=S(=O)(C1CC1)N1CCO[C@H]2[C@H](OCCN3CCCC3)CC[C@@H]21", "cytotoxicity at 10 µM / %": -5.63}
{"compound": "CC(C)N1Cc2cccc(NCC(=O)N(C)C)c2C1", "cytotoxicity at 10 µM / %": 6.05}
{"compound": "O=C(c1ccc(Cn2cc(Br)cn2)cc1)N1CCOCC1", "cytotoxicity at 10 µM / %": -13.6}
{"compound": "CCOC(=O)c1coc(N2CCC(C(O)CC(C)C)CC2)n1 (centres undefined)", "cytotoxicity at 10 µM / %": 5.78}
{"compound": "CCCOCC1CCN(C(=O)Cn2ncc(N3CCCC3)cc2=O)C1 (centres undefined)", "cytotoxicity at 10 µM / %": 3.41}
{"compound": "COc1cc(OC)c(CNC(=O)NCc2ccc(C#N)cc2)c(OC)c1", "cytotoxicity at 10 µM / %": 8.01}
{"compound": "Cc1cn(CC(=O)Nc2cc(C(C)C)nn2C)cn1", "cytotoxicity at 10 µM / %": 5.44}
{"compound": "CN(Cc1nnc(C2CC2)o1)CC1CCCN1c1cccnn1 (centres undefined)", "cytotoxicity at 10 µM / %": -6.54}
{"compound": "OCCCN1CCOC(c2ccc(F)cc2)C1 (centres undefined)", "cytotoxicity at 10 µM / %": -7.09}
{"compound": "CCCN(C)CC1CCN(c2ncc(Br)cn2)C1 (centres undefined)", "cytotoxicity at 10 µM / %": -6.68}
{"compound": "CN1CCCN(S(=O)(=O)c2cn(C)cn2)c2cc(F)ccc21", "cytotoxicity at 10 µM / %": 6.06}
{"compound": "Cc1ccc(C)c(CN(C)Cc2nnc3ccccn23)c1", "cytotoxicity at 10 µM / %": -10.5}
{"compound": "COc1ccccc1CC(C)(C)NC(=O)CNS(C)(=O)=O", "cytotoxicity at 10 µM / %": 4.21}
{"compound": "CN(C(=O)c1cc(F)ccc1F)[C@@H]1CC[C@@H](O)[C@@H]1O", "cytotoxicity at 10 µM / %": -0.822}
